Quick reference for pKi among some compounds
target: MpLBD (Myzus persicae, UniProt A3EZJ9); assay: FP competitive inhibition assay with MB4628 tracer, MpLBD; type: binding; conditions: 5 nM functional MpLBD, 36 nM MB4628, no CHAPS, Cheng-Prusoff; read-out: FP-derived Ki, MpLBD
The value called pKi is obtained by taking minus log10 of the concentration in mol/L.

# Record smiles, pKi
rows = [
    ("CC(C)CC[C@@H](O)[C@](C)(O)[C@H]1CC[C@@]2(O)C3=CC(=O)[C@]4(O)C[C@@H](O)[C@@H](O)C[C@]4(C)[C@H]3[C@H](O)C[C@]12C", 6.83),
]

Okay, next one:
Task item: Name the recorded pKi for "CC(C)CC[C@@H](O)[C@](C)(O)[C@H]1CC[C@@]2(O)C3=CC(=O)[C@@H]4C[C@@H](O)[C@@H](O)C[C@]4(C)[C@H]3CC[C@]12C" .
Reply: 9.00

###

Target: BtLBD (Bemisia tabaci, UniProt A0A142K0N3)
Assay: FP titration of MB4628 with BtLBD
Assay type: binding
Conditions: Kd for MB4628 from FP titration curve, BtLBD, with 2 mM CHAPS, 36 nM MB4628
Method: The standard FP assay buffer was 50 mM sodium phosphate, 100 mM NaCl, pH 7.4, containing 0.5 mg/ml bovine serum albumin. […] The assays themselves were set up in opaque black flat-bottomed 96-well plates designed for fluorescence measurements (e.g. Nunc, Cat. No. 237108). […] Excitation was done at 485 nm (filter 485) and emission was detected at 520 nm (filter 520p). The standard instrument setup involved a 3 sec/3 mm shake for the plate prior to commencing reading; readings used 200 flashes/assay. […]
Attribute measured: Kd (µM)
Use µM as the unit, but write only the number.

Task item: Name the recorded Kd for CC(CCC(O)C(C)(O)C1CCC2(O)C3=CC(=O)C4CC(O)C(O)CC4(C)C3CCC12C)COC(=S)Nc1ccc2c(c1)C(=O)OC21c2ccc(O)cc2Oc2cc(O)ccc21 (stereo not shown) [MB4628] .
Reply: 0.0353

###

Molecular target: BtLBD (Bemisia tabaci, UniProt A0A142K0N3)
Test: miniaturized automated radioligand-based competition assay, BtLBD
Format: binding
Conditions: 1.3 nM [3H]ponasterone A, no CHAPS, read-out: Ki from radioligand-based BtLBD assay
From the text: Subsequently, a miniaturized and automated version of the radioligand-based competition assay was used with MpLBD and BtLBD to obtain Ki values for the non-radioactive, non-fluorescent ecdysteroids that would later be used to validate the competitive inhibition format of the FP assay. […] Since the amount of bound radioactivity was at most 28% of the total present, no additional corrections for ligand depletion were applied.
Attribute measured: pKi
The value called pKi is obtained by taking minus log10 of the concentration in mol/L.

# Molecule, pKi
measured = [
    ("CC(C)CC[C@@H](O)[C@](C)(O)[C@H]1CC[C@@]2(O)C3=CC(=O)[C@]4(O)C[C@@H](O)[C@@H](O)C[C@]4(C)[C@H]3[C@H](O)C[C@]12C [muristerone A]", 8.28),
]

Okay, next one:
Task item: Name the recorded pKi for CC(C)CC[C@@H](O)[C@](C)(O)[C@H]1CC[C@@]2(O)C3=CC(=O)[C@@H]4C[C@@H](O)[C@@H](O)C[C@]4(C)[C@H]3CC[C@]12C [ponasterone A] .
Reply: 8.32

###

Quick reference for Ki among some compounds
biological target: MpLBD, recombinant M. persicae ecdysone receptor (Myzus persicae, UniProt A3EZJ9); assay: manual radioligand-based competitive inhibition assay ([3H]ponasterone A), MpLBD
Use nM as the unit, but write only the number.

# Compound, Attribute measured, Numeric value
records = [
    ("CC(CO)CC[C@@H](O)[C@](C)(O)[C@H]1CC[C@@]2(O)C3=CC(=O)[C@@H]4C[C@@H](O)[C@@H](O)C[C@]4(C)[C@H]3CC[C@]12C (stereo partly shown)", "Ki", 65),
]

Task item: Name the recorded Ki for COc1ccc2cc(NC(=O)OCC(C)CC[C@@H](O)C(C)(O)C3CC[C@@]4(O)C5=CC(=O)[C@@H]6C[C@@H](O)[C@@H](O)CC6(C)C5CCC34C)c(=O)oc2c1 (stereo partly shown) .
Reply: 40

Task item: Name the recorded Ki for CC(CCC(O)C(C)(O)C1CCC2(O)C3=CC(=O)C4CC(O)C(O)CC4(C)C3CCC12C)COC(=S)Nc1ccc2c(c1)C(=O)OC21c2ccc(O)cc2Oc2cc(O)ccc21 (stereo not shown) .
Reply: 40

Task item: Name the recorded Ki for CCN(CC)c1ccc2cc(NC(=O)OCC(C)CCC(O)C(C)(O)C3CCC4(O)C5=CC(=O)C6CC(O)C(O)CC6(C)C5CCC34C)c(=O)oc2c1 (stereo not shown) .
Reply: 20

###

Target: UniProt:A3EZJ9
Sequence (A3EZJ9 70-308): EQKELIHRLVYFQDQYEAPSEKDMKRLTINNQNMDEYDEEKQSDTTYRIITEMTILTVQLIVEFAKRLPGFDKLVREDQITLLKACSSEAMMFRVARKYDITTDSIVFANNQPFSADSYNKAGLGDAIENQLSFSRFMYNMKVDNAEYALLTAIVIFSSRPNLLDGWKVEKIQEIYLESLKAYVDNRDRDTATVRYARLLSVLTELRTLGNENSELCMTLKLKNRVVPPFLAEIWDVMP
Sequence (A3EZK0 32-259 partner): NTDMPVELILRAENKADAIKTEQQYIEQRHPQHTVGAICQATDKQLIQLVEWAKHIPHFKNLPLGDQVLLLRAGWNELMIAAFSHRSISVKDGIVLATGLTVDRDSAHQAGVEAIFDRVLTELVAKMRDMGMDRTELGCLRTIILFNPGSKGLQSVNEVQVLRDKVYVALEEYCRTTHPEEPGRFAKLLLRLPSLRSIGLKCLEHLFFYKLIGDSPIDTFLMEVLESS
Experiment: miniaturized automated radioligand-based competition assay, MpLBD
Format: binding
Conditions: 1.3 nM [3H]ponasterone A, no CHAPS, read-out: Ki from radioligand-based MpLBD assay
From the text: Subsequently, a miniaturized and automated version of the radioligand-based competition assay was used with MpLBD and BtLBD to obtain Ki values for the non-radioactive, non-fluorescent ecdysteroids that would later be used to validate the competitive inhibition format of the FP assay. […] Since the amount of bound radioactivity was at most 28% of the total present, no additional corrections for ligand depletion were applied.
Attribute measured: pKi
The value called pKi is obtained by taking minus log10 of the concentration in mol/L.

Task item: Name the recorded pKi for "CC(C)CC[C@@H](O)[C@](C)(O)[C@H]1CC[C@@]2(O)C3=CC(=O)[C@]4(O)C[C@@H](O)[C@@H](O)C[C@]4(C)[C@H]3[C@H](O)C[C@]12C" .
Reply: 7.52

###

biological target: MpLBD, recombinant M. persicae ecdysone receptor (Myzus persicae, UniProt A3EZJ9); test: manual radioligand-based competitive inhibition assay ([3H]ponasterone A), MpLBD; assay type: binding; conditions: radioligand-based assay
Attribute measured: ability to compete with [3H]ponasterone A / bind to MpLBD (in words)

# Molecule, Result
measured = [
    ("COc1ccc2cc(NC(=O)OCC(C)CC[C@@H](O)C(C)(O)C3CC[C@@]4(O)C5=CC(=O)[C@@H]6C[C@@H](O)[C@@H](O)CC6(C)C5CCC34C)c(=O)oc2c1 (stereo partly shown)", "unimpaired"),
    ("CC(CCC(O)C(C)(O)C1CCC2(O)C3=CC(=O)C4CC(O)C(O)CC4(C)C3CCC12C)COC(=S)Nc1ccc2c(c1)C(=O)OC21c2ccc(O)cc2Oc2cc(O)ccc21 (stereo not shown)", "unimpaired"),
    ("CCN(CC)c1ccc2cc(NC(=O)OCC(C)CCC(O)C(C)(O)C3CCC4(O)C5=CC(=O)C6CC(O)C(O)CC6(C)C5CCC34C)c(=O)oc2c1 (stereo not shown)", "unimpaired"),
]

Values from patent US20070292967A1
